- TEST DESCRIPTION: CCTE_Shafer_MEA_dev_network_spike_duration_std: CCTE's Neural Network Formation Assay for Standard Deviation of Network Spike Duration, Shafer Lab (AID 2284052);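 note: area under curve of spike duration SD across recording days 5 to 12; hits are decreases in network spike duration SD versus DMSO vehicle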
Activity calls are given as the source filed them. Rule for the calls: active = hit-call score of the fitted dose curve at least 0.9, where 1 is the maximum; inactive = score below 0.9.
Hi! Could you answer with just one of these? True (active), False (inactive)

// query GET /call?item= `O=C(O)C(F)(F)C(F)(F)C(F)(F)C(F)(F)C(F)(F)C(F)(F)C(F)(F)C(F)(F)C(F)(F)C(F)(F)F` returns the recorded outcome of this test.
// result False

// query Try this molecule next: CCC(=O)C(CC(C)N(C)C)(c1ccccc1)c1ccccc1 (stereo unspecified)
// result False

// query Try this molecule next: `O=C(O)C(F)(F)C(F)(F)C(F)(F)C(F)(F)C(F)(F)C(F)(F)F`
// result False

// query Try this molecule next: `C=C(C)C(=O)[O][Sn]([CH2]CCC)([CH2]CCC)[CH2]CCC`
// result True

// query Try this molecule next: `Cn1sc(Cl)cc1=O`
// result True

// query Try this molecule next: `COP(=O)(OC)O/C(=C\Cl)c1cc(Cl)c(Cl)cc1Cl`
// result False
